Molecular target: SCD-1 (Homo sapiens, UniProt O00767)
Construct: 50 μg of protein from a HepG2 cell P2 pellet; endogenous in cells; host or cells: HepG2 cells (P2 pellet)
Sequence (O00767 1-359): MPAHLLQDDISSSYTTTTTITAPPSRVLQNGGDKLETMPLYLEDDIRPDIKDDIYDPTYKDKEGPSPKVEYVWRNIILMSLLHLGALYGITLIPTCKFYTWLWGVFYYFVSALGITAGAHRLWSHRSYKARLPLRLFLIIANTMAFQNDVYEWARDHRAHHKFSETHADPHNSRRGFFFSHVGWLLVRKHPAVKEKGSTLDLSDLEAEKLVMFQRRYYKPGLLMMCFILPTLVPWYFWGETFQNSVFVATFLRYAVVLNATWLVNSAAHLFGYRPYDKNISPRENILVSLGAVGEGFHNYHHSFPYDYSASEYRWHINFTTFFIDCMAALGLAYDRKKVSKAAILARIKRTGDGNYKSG
Experiment: Stearoyl-CoA desaturase assay (HepG2 cell P2 pellet)
Type: biochemical
Conditions: Table 2, compounds of formula (Ib); protein from HepG2 cell P2 pellet, 20 μM stearoyl-CoA, 15 min at 25° C.; read-out: Ave IC50
pIC50: −log10 of the molar value.
Quick reference: pIC50 of the listed items.

STRUCTURE_NOTATION	pIC50
CC(C)(C)OC(=O)CCNC(=O)c1cnc(N2CCC3(CC2)CCN(Cc2ccc(C(C)(C)C)cc2)c2ccccc2O3)s1	5.00 to 6.30
CC(C)(C)c1ccc(CN2CCC3(CCN(c4ncc(C(=O)NC[C@@H](O)CO)s4)CC3)Oc3c(F)cccc32)cc1	6.30 to 7.30
CC(C)(C)c1ccc(CN2CCC3(CCN(c4ncc(C(=O)NCCC(=O)O)s4)CC3)Oc3ccccc32)cc1	7.31 to 9.30
CC(C)(C)c1ccc(CN2CCC3(CCN(c4ncc(C(=O)NCCCCCC(=O)O)s4)CC3)Oc3c(F)cccc32)cc1	5.00 to 6.30

---

Biological target: SCD-1 (Homo sapiens)
Construct: 50 μg of protein from a HepG2 cell P2 pellet; endogenous in cells; host or cells: HepG2 cells (P2 pellet)
Sequence (O00767 1-359): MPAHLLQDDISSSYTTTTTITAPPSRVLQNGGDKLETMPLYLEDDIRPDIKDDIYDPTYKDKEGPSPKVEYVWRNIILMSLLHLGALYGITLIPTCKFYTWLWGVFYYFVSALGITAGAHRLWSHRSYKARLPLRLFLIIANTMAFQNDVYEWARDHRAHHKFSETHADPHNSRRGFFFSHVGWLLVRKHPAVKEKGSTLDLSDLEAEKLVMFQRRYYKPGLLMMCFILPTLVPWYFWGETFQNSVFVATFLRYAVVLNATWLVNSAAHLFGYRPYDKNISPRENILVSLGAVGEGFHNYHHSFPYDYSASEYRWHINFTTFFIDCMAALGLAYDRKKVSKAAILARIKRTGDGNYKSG
Test: Stearoyl-CoA desaturase assay (HepG2 cell P2 pellet)
Format: biochemical
Conditions: Table 3, compounds of formula (Ic); protein from HepG2 cell P2 pellet, 20 μM stearoyl-CoA, 15 min at 25° C.; read-out: Ave IC50
Quick reference: IC50 of the listed items.
EXPERIMENTAL_ENDPOINT: IC50

STRUCTURE_NOTATION	VALUE
CN(C)CCNC(=O)c1ccc(N2CCC3(CC2)CCN(Cc2cccc(C(F)(F)F)c2)c2ccccc2O3)nn1	500 to 10000 nM
CC(C)(C)c1ccc(CN2CCC3(CCN(c4ccc(C(=O)O)cn4)CC3)Oc3c(F)cccc32)cc1	50 to 499 nM
CC(C)(C)CCNC(=O)c1ccc(N2CCC3(CC2)CCN(Cc2cccc(C(F)(F)F)c2)c2ccccc2O3)nn1	500 to 10000 nM
CC(C)(C)c1ccc(CN2CCC3(CCN(c4ccc(C(=O)NCCc5c[nH]cn5)cn4)CC3)Oc3c(F)cccc32)cc1	500 to 10000 nM
NC(=O)c1ccc(N2CCC3(CC2)CCN(Cc2cccc(C(F)(F)F)c2)c2ccccc2O3)nn1	0.5 to 49 nM
O=C(NCCc1c[nH]cn1)c1ccc(N2CCC3(CC2)CCN(Cc2cccc(C(F)(F)F)c2)c2ccccc2O3)nn1	0.5 to 49 nM
CCc1ccc(CN2CCC3(CCN(c4ccc(C(=O)NCCC5CC5)nn4)CC3)Oc3ccccc32)cc1	0.5 to 49 nM
O=C(NCCc1cccnc1)c1ccc(N2CCC3(CC2)CCN(Cc2cccc(C(F)(F)F)c2)c2ccccc2O3)nn1	0.5 to 49 nM
CC(C)(C)c1ccc(CN2CCC3(CCN(c4ccc(C(=O)NCCC5CC5)nn4)CC3)Oc3ccccc32)cc1	0.5 to 49 nM
COC(=O)c1ccc(N2CCC3(CC2)CCN(Cc2cccc(C(F)(F)F)c2)c2ccccc2O3)nn1	0.5 to 49 nM
COC(=O)c1ccc(N2CCC3(CC2)CCN(Cc2ccc(C(C)(C)C)cc2)c2cccc(F)c2O3)nc1	50 to 499 nM
CCNC(=O)c1ccc(N2CCC3(CC2)CCN(Cc2cccc(C(F)(F)F)c2)c2ccccc2O3)nn1	50 to 499 nM
CC(C)(C)c1ccc(CN2CCC3(CCN(c4ccc(C(=O)NCCC5CC5)nn4)CC3)Oc3c(F)cccc32)cc1	50 to 499 nM
O=C(NCCC1CC1)c1ccc(N2CCC3(CC2)CCN(Cc2cccc(C(F)(F)F)c2)c2cccc(F)c2O3)nn1	0.5 to 49 nM

Entry source: patent US20120220567A1
